Provenance of the data: paper PMC11079024

# measured on: C. elegans (N2) complex I (NADH:ubiquinone oxidoreductase) (Caenorhabditis elegans, UniProt P24887+Q93873+Q94360)
# Sequence (Q94360 17-199): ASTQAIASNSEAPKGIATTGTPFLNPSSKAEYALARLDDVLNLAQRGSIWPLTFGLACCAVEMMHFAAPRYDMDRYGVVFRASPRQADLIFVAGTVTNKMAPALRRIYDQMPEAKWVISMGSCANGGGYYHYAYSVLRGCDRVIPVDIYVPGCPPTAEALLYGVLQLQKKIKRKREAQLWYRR
# Sequence (P24887 whole entry): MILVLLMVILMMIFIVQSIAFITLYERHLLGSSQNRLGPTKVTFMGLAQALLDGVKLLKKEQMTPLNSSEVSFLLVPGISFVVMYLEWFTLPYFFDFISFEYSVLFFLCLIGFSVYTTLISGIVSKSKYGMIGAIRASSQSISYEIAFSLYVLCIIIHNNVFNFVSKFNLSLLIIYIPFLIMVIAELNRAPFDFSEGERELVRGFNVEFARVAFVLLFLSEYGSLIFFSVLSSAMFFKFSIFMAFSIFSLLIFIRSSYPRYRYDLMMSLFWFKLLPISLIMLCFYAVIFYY
# Sequence (Q93873 31-482): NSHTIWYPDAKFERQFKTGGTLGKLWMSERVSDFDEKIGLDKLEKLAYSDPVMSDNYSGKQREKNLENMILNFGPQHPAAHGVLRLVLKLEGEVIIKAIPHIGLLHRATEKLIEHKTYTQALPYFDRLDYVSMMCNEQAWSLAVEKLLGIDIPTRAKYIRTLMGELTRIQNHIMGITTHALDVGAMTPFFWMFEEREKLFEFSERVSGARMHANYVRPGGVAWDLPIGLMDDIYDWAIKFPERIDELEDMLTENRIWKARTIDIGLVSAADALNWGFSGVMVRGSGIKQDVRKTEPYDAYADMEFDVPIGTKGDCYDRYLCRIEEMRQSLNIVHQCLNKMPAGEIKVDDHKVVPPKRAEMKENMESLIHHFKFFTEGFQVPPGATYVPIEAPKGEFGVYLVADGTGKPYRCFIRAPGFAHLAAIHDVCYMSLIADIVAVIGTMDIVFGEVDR
# test description: biochemical
# Assay type: biochemical
# measurement context: 3 µM; wild-type C. elegans mitochondria; mean of replicates; read-out: percent (%) in vitro complex I activity relative to solvent control
In this section we review reported remaining activity at 3 µM values for a set of molecules.

- molecule: "CC(C)Cc1ccc(C(C)c2nc3ccccc3n2C)cc1 (stereo not drawn)"
  remaining activity at 3 µM / %: 52.5
- molecule: "COc1cc2c(cc1OC)C(/C=C/c1ccc(N(C)C)cc1)=NCC2"
  remaining activity at 3 µM / %: 89.5
- molecule: "COc1cc2c(cc1OC)C(c1ccc(-c3ccc(Cl)c(Cl)c3)o1)=NCC2"
  remaining activity at 3 µM / %: 92.6

---

# measured on: B. taurus (heart) complex I (Bos taurus, UniProt P03887+P17694+P42026)
# Sequence (P03887 whole entry): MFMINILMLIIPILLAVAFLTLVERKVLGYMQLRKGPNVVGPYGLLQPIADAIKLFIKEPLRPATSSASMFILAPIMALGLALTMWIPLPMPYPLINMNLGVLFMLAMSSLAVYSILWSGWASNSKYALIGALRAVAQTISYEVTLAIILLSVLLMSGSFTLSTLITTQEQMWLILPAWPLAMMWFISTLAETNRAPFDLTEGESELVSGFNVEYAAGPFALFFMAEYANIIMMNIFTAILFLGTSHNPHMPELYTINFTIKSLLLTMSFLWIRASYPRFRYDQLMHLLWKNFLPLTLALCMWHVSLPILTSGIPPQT
# Sequence (P17694 34-463): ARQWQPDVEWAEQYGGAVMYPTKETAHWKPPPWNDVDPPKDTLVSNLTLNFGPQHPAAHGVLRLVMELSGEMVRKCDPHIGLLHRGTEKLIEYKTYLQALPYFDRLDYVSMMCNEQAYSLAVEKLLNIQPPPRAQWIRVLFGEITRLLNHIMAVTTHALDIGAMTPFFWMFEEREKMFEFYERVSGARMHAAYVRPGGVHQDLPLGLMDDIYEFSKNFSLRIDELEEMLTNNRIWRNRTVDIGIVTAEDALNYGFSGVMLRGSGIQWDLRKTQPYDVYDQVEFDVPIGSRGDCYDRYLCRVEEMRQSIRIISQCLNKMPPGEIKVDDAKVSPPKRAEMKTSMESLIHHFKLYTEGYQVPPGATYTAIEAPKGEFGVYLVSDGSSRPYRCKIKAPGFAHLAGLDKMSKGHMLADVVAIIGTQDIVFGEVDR
# Sequence (P42026 38-216): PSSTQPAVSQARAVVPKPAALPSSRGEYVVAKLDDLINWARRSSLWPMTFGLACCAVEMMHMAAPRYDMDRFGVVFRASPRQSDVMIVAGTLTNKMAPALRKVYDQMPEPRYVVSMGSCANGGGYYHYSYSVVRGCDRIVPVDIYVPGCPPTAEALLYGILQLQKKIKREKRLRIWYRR
# test description: biochemical
# Format: biochemical
# measurement context: Dose 75 µM; read-out: B. taurus mitochondrial complex I activity
# Experimental: Six 8–10-week-old C57Bl/6 female mice (Charles River) were freshly dissected, and their livers and hearts collected into separate 1.5 mL microcentrifuge tubes. Organs were flash-frozen in liquid nitrogen and stored at −80 °C prior to use. […] The enzymatic activities of individual ETC complexes (I-IV) were assessed spectrophotometrically in isolated mitochondria using a Varioskan LUX Multimode plate reader (ThermoFisher Scientific). […]
observation type: activity at 75 µM (%)

- chemical smiles: "Cc1ccccc1OCCCCn1cnc2ccccc21"
  observation type: "activity at 75 µM"
  unit tag: "%"
  result number: 1.41
- chemical smiles: "Clc1ccc(Cn2cnc3ccccc32)cc1Cl"
  observation type: "activity at 75 µM"
  unit tag: "%"
  result number: 1.54
- chemical smiles: "Cc1nc2ccccc2n1CCOc1ccccc1Cl"
  observation type: "activity at 75 µM"
  unit tag: "%"
  result number: 6
- chemical smiles: "Clc1ccc(OCCn2cnc3ccccc32)c(Cl)c1"
  observation type: "activity at 75 µM"
  unit tag: "%"
  result number: 3.92
- chemical smiles: "Brc1ccccc1OCCCCn1cnc2ccccc21"
  observation type: "activity at 75 µM"
  unit tag: "%"
  result number: 3.05
- chemical smiles: "Clc1ccc(Cn2cnc3ccccc32)c(Cl)c1"
  observation type: "activity at 75 µM"
  unit tag: "%"
  result number: 1.94
- chemical smiles: "Cc1ccc(SCCCCn2cnc3ccccc32)cc1"
  observation type: "activity at 75 µM"
  unit tag: "%"
  result number: 1.13
- chemical smiles: "Cc1ccc(SCCCn2cnc3ccccc32)cc1"
  observation type: "activity at 75 µM"
  unit tag: "%"
  result number: 1.94
- chemical smiles: "Cc1ccc(OCCn2cnc3ccccc32)c(C)c1"
  observation type: "activity at 75 µM"
  unit tag: "%"
  result number: 6.37
- chemical smiles: "Cc1nc2ccccc2n1CCOc1ccccc1"
  observation type: "activity at 75 µM"
  unit tag: "%"
  result number: 5.1

---

In this section we review reported activity at 37.5 µM values for a set of molecules.
# measured on: B. taurus (heart) complex I (Bos taurus, UniProt P03887+P17694+P42026)
# test description: biochemical
# Type: biochemical
# measurement context: B. taurus; dose 37.5 µM; Mean of replicates; read-out: Complex I activity, dose-response data
observation type: activity at 37.5 µM

- molecule: "CC(C)Cc1ccc(C(C)c2nc3ccccc3n2C)cc1 (stereo not shown)"
  result: "38%"
- molecule: "COc1cc2c(cc1OC)C(c1ccc(-c3ccc(Cl)c(Cl)c3)o1)=NCC2"
  result: "26.1%"
- molecule: "COc1cc2c(cc1OC)C(/C=C/c1ccc(N(C)C)cc1)=NCC2"
  result: "51.7%"
- molecule: "COc1cc2c(cc1OC)C(C(C)c1ccc(CC(C)C)cc1)=NCC2 (stereo not shown)"
  result: "5.69%"

---

# test description: in vitro
# measurement context: human, HEK293 viability, dose 12.5 µM; Mean of replicates

- compound: "C=C(C)[C@H]1Cc2c(ccc3c2O[C@@H]2COc4cc(OC)c(OC)cc4[C@@H]2C3=O)O1 [Rotenone, reference compound]"
  viability / %: 26.9

---

In this section we review reported remaining activity at 3 µM values for a set of compounds.
# measured on: C. elegans (N2) complex I (NADH:ubiquinone oxidoreductase) (Caenorhabditis elegans, UniProt P24887+Q93873+Q94360)
# test description: biochemical
# Assay type: biochemical
# measurement context: 3 µM; wild-type C. elegans mitochondria; mean of replicates; read-out: percent (%) in vitro complex I activity relative to solvent control

- compound: "COc1cc2c(cc1OC)C(C(C)c1ccc(CC(C)C)cc1)=NCC2 (stereo not shown)"
  remaining activity at 3 µM [%]: 58.9
- compound: "COC(=O)Nc1nc2ccc(C(=O)c3ccccc3)cc2[nH]1 [mebendazole, reference compound]"
  remaining activity at 3 µM [%]: 104
- compound: "COC(=O)Nc1nc2ccc(Sc3ccccc3)cc2[nH]1 [fenbendazole, reference compound]"
  remaining activity at 3 µM [%]: 108
- compound: "COc1ccc(Cc2nccc3cc(OC)c(OC)cc23)cc1OC [Papaverine, reference compound]"
  remaining activity at 3 µM [%]: 63.8

---

In this section we review reported KCN survival assay value relative to DMSO control, Mean values for a set of molecules.
# System: L1 wild-type C. elegans
# measurement context: drug + KCN, 6.3 µM, 15-hour, mean of replicates
observation type: KCN survival assay value relative to DMSO control, Mean

- molecule: "O=C(Nc1ccc([N+](=O)[O-])cc1Cl)c1cc(Cl)ccc1O [Niclosamide]"
  result number: 0.039
- molecule: "O=C(Nc1cc(Cl)cc(Cl)c1O)c1c(O)c(Cl)cc(Cl)c1Cl [Oxyclozanide]"
  result number: 0.000
- molecule: "O=C(Nc1ccc(Oc2ccc(Cl)cc2)c(Cl)c1)c1cc(I)cc(I)c1O [Rafoxanide]"
  result number: 0.0019
- molecule: "Cc1cc(C(C#N)c2ccc(Cl)cc2)c(Cl)cc1NC(=O)c1cc(I)cc(I)c1O (stereo not shown)"
  result number: 0.000

---

In this section we review reported activity at 0.001 µM values for a set of compounds.
# measured on: M. musculus (heart) complex I (Mus musculus, UniProt P03888+Q91WD5+Q9DC70)
# Sequence (Q91WD5 34-463): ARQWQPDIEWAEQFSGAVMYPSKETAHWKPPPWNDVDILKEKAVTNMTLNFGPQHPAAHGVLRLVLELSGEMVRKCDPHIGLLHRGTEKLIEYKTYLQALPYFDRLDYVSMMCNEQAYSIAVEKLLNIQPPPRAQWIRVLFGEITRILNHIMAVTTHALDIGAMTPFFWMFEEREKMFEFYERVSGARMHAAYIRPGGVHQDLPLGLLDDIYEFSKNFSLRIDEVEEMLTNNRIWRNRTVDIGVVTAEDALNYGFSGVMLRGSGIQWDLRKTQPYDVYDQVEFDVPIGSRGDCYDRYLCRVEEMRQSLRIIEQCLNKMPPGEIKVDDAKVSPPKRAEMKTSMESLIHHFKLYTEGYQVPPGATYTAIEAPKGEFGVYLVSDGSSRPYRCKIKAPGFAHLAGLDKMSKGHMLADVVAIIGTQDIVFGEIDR
# Sequence (Q9DC70 36-224): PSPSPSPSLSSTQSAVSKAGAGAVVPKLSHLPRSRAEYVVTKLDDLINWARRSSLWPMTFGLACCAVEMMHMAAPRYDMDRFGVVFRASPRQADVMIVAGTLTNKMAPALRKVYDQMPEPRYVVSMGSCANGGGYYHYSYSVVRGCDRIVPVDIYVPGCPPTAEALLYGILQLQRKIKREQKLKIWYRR
# Sequence (P03888 whole entry): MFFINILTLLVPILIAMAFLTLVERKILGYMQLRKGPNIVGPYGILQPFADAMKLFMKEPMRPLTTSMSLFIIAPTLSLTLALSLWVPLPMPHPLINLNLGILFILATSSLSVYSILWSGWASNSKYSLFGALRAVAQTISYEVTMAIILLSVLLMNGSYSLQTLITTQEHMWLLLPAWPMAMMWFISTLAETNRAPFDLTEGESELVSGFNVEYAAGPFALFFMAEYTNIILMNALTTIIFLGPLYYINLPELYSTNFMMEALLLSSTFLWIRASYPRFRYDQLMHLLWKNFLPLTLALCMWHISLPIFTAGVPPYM
# test description: biochemical
# Type: biochemical
# measurement context: M. musculus; dose 0.001 µM; individual replicates (Rep); read-out: Complex I activity, dose-response data
# Experimental: Six 8–10-week-old C57Bl/6 female mice (Charles River) were freshly dissected, and their livers and hearts collected into separate 1.5 mL microcentrifuge tubes. Organs were flash-frozen in liquid nitrogen and stored at −80 °C prior to use. […] The enzymatic activities of individual ETC complexes (I-IV) were assessed spectrophotometrically in isolated mitochondria using a Varioskan LUX Multimode plate reader (ThermoFisher Scientific). […]

- compound: "COc1cc2c(cc1OC)C(c1ccc(-c3ccc(Cl)c(Cl)c3)o1)=NCC2"
  activity at 0.001 µM: "104%"
- compound: "COc1cc2c(cc1OC)C(C(C)c1ccc(CC(C)C)cc1)=NCC2 (stereo not shown)"
  activity at 0.001 µM: "109%"
- compound: "COc1cc2c(cc1OC)C(/C=C/c1ccc(N(C)C)cc1)=NCC2"
  activity at 0.001 µM: "101%"
- compound: "CC(C)Cc1ccc(C(C)c2nc3ccccc3n2C)cc1 (stereo not shown)"
  activity at 0.001 µM: "106%"

---

# measured on: M. musculus (heart) complex I (Mus musculus, UniProt P03888+Q91WD5+Q9DC70)
# test description: biochemical
# Format: biochemical
# measurement context: M. musculus; dose 15 µM; Mean of replicates; read-out: Complex I activity, dose-response data

- molecule: "COc1cc2c(cc1OC)C(/C=C/c1ccc(N(C)C)cc1)=NCC2"
  measured on: "M. musculus (heart) complex I (Mus musculus, UniProt P03888+Q91WD5+Q9DC70)"
  unit tag: "%"
  activity at 15 µM: 80.3
- molecule: "COc1cc2c(cc1OC)C(c1ccc(-c3ccc(Cl)c(Cl)c3)o1)=NCC2"
  measured on: "M. musculus (heart) complex I (Mus musculus, UniProt P03888+Q91WD5+Q9DC70)"
  unit tag: "%"
  activity at 15 µM: 81.9
- molecule: "COc1cc2c(cc1OC)C(C(C)c1ccc(CC(C)C)cc1)=NCC2 (stereo not shown)"
  measured on: "M. musculus (heart) complex I (Mus musculus, UniProt P03888+Q91WD5+Q9DC70)"
  unit tag: "%"
  activity at 15 µM: 32.6
- molecule: "CC(C)Cc1ccc(C(C)c2nc3ccccc3n2C)cc1 (stereo not shown)"
  measured on: "M. musculus (heart) complex I (Mus musculus, UniProt P03888+Q91WD5+Q9DC70)"
  unit tag: "%"
  activity at 15 µM: 78.9
